molecular target: T1, control peptide A2E-23/HLA-A*02:01 complex on T2 cells (member of the P19 mixture) (human); test: flow cytometry, phage on T2 cells
T1 construct: Loaded on T2 cells as part of the mixture of 19 control peptides
measurement-kind: binding result

Prompt line: // lookup binding result for PSA146/HLA-A*02:01-specific scFv phage clone #15 (scFv, V domains shown) VH: QVQLVQSGAEVKKPGSSVKVSCKASGGTFSSYAISWVRQAPGQGLEWMGRIIPILGIANYAQKFQGRVTITADKSTSTAYMELSSLRSEDTAVYYCARVSQPVYGSSTYDIWGQGTLVTVSS VL: QAVLTQPPSASGTPGQRVTISCSGRSSNLGSNSVNWYQQVPGTAPKLLIFDNHQRPSGVPDRFSGSKSGTSASLAISGLRSEDETDYYCAAWDDSLNSVVFGGGTKLTVLG
Response line: no binding

Prompt line: // lookup binding result for PSA146/HLA-A*02:01-specific scFv phage clone #12 (scFv, V domains shown) VH: QMQLVQSGSEVKKPGASVKVSCKASGYTFTSYGISWVRQAPGQGLEWMGWISAYNGNTDYVQKLQGRVTMTTDTSTNTAYMELGSLGSDDTAVYYCARTNYNKYDIWGQGTLVTVSS VL: QSVLTQPPSVSGAPGQRVTISCTGSSSNIGAGYDVHWYQQLPGTAPKLLIYGNSNRPSGVPDRFSGSKSGTSASLAITGLQAEDEADYYCQSYDSSLSEVFGTGTKVTVLG
Response line: no binding

Prompt line: // lookup binding result for PSA146/HLA-A*02:01-specific scFv phage clone #18 (scFv, V domains shown) VH: QVQLVQSGAEVKKPGESLKISCKGSGYSFTSYWIGWVRQMPGKGLEWMGIIYPGDSDTRYSPSFQGQVTISADKSISTAYLQWSSLKASDTAMYYCARWGSRGFLDAFDIWGQGTMVTVSS VL: QSVVTQPPSVSAAPGQRVTISCSGSSSNIGNNYVSWYQQLPGAAPRLLIYDNDKRPSGIPDRFSGSKSGTSATLGITGLQTGDEADYYCGTWDSSLSSGVFGGGTKLTVLG
Response line: no binding
